SYSTEM_UNDER_TEST: Topoisomerase IV (Staphylococcus aureus, UniProt P0C1S7+P0C1U9)
METHOD_SUMMARY: Inhibition of Staphylococcus aureus topoisomerase IV decatenation activity using kDNA as substrate by ethidium bromide/bromophenol blue staining based agarose gel electrophoresis analysis
// returns f unless IC50 is strictly below 1000 nM, in which case t

> print(dat)
                                   compound  category
1  COc1ccc2ncc(F)c(C[C@H](O)[C@H]3OC[C@H](NCc4cc5c(nn4)OCCO5)CO3)c2n1         f
2  COc1ccc2ncc(F)c(C[C@H](O)[C@H]3OC[C@H](NCc4cc5c(cn4)OCS5)CO3)c2n1         t
3  COc1ccc2ncc(F)c(C[C@H](O)[C@H]3OC[C@H](NCc4ccc(C)cc4)CO3)c2n1         f
4  COc1ccc2ncc(F)c(C(O)C[C@H]3OC[C@H](NCc4ccc(Cl)c(Cl)c4)CO3)c2n1 (mixture of isomers)         t
5  COc1ccc2ncc(F)c(C[C@H](O)[C@H]3OC[C@H](NCc4cnc5c(n4)OCCO5)CO3)c2n1         f
6  COc1ccc2ncc(F)c(C(O)C[C@H]3OC[C@H](NCc4ccc5c(n4)NC(=O)CO5)CO3)c2c1 (mixture of isomers)         f
7  COc1ccc2ncc(F)c(C[C@H](O)[C@H]3OC[C@H](NCc4cc5c(cn4)OCCC5)CO3)c2n1         f
8  COc1ccc2ncc(=O)n(CC(O)[C@H]3OC[C@H](NCc4ccc5c(c4)OCCO5)CO3)c2c1 (mixture of isomers)         f

stdin: Lab note: IC50 threshold 1000 nM. Does this compound come in strictly under it? COc1ccc2ncc(F)c(C(O)C[C@H]3OC[C@H](NCc4ccc5c(n4)NC(=O)CS5)CO3)c2n1 (mixture of isomers)
stdout: f

stdin: Lab note: IC50 threshold 1000 nM. Does this compound come in strictly under it? COc1ccc2ncc(F)c(C(O)C[C@H]3OC[C@H](NCc4cc5c(nn4)OCCS5)CO3)c2c1 (mixture of isomers)
stdout: f

stdin: Lab note: IC50 threshold 1000 nM. Does this compound come in strictly under it? COc1ccc2ncc(F)c(C[C@H](O)[C@H]3OC[C@H](NCc4ccc(Cl)c(Cl)c4)CO3)c2n1
stdout: f
